- experimental_target: WEE1 (Homo sapiens)
- Construct: purchased Thermo Fisher PR7373A
- Sequence (P30291 whole entry): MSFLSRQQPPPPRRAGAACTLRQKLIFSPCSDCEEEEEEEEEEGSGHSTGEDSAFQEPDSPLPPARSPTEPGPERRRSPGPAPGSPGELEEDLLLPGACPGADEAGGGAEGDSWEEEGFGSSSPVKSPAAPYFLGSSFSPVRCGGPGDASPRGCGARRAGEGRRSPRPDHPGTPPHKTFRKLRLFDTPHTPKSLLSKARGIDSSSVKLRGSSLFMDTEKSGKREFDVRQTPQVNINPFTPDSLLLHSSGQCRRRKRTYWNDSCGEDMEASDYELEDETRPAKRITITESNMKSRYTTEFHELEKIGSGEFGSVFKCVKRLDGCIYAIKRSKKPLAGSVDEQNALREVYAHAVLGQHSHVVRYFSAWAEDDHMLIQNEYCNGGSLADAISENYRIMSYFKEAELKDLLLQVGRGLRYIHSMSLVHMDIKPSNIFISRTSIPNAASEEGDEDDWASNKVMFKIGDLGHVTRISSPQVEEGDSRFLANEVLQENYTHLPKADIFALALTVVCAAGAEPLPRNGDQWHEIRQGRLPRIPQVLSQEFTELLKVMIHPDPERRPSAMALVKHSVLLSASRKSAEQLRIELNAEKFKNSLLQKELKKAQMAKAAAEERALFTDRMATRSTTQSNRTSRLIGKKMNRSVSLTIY
- experiment_summary: Selectivity versus WEE1 assay (ADP-Glo enzymatic assay)
- Format: biochemical
- condition_notes: WEE1 15 nM; ADP-Glo; banded values
pIC50: −log10 of the molar value.
Reported pIC50 values follow for various molecules

Cc1cn(-c2cnn(CCO)c2)nc1Nc1ncc(C(=O)Nc2c(C)ccc(O)c2C)s1; 4.96 to 6.00
Cc1ccc(O)c(C)c1NC(=O)c1cnc(Nc2ccn(C3CCN(C)C3=O)n2)s1 (stereo not drawn); < 4.96
Cc1ccc(O)c(C)c1NC(=O)c1cnc(Nc2cc(C)n(CC(C)O)n2)s1 (stereo not drawn); 4.96 to 6.00
Cc1ccc(O)c(C)c1NC(=O)c1cnc(Nc2nn(CCF)cc2Br)s1; 4.96 to 6.00

Cc1cn(CC#N)nc1Nc1ncc(C(=O)Nc2c(C)ccc(O)c2C)s1 has a reported pIC50 of 6.00 to 7.30

Per the records, this molecule ( Cc1ccc(O)c(C)c1NC(=O)c1cnc(Nc2cc(N3CCNCC3)ncn2)s1 ) has pIC50 equal to 6.00 to 7.30

Query Cc1ccc(O)c(C)c1NC(=O)c1cnc(Nc2cccc(F)n2)s1 yields pIC50 of 4.96 to 6.00

Lab note: measured pIC50 of Cc1ccc(O)c(C)c1NC(=O)c1cnc(Nc2onc(C)c2C(N)=O)s1 was < 4.96

pIC50 for Cc1nc2cc(Nc3ncc(C(=O)Nc4c(C)ccc(O)c4C)s3)ccc2o1 is 4.96 to 6.00
